System: SK-MEL-2 melanoma
assayName: NCI tumour cell line growth inhibition, 48 h
quantity: TGI

> print(dat)
                             compoundsmiles  valuemeasured
1  O=C(CC(=O)CC(O)(C(F)(F)F)C(F)(F)F)CC(O)(C(F)(F)F)C(F)(F)F        > 10 µM
2  c1ccc2c(c1)[nH]c1nc3cc(-c4ccc5nc6c(nc5c4)[nH]c4ccccc46)ccc3nc12       > 100 µM
3  Nc1ccn(Cc2ccc(C34CC5CC(CC(C5)C3)C4)c(O)c2)c(=O)n1       > 100 µM
4  COc1cc(OCc2ccc3oc(=O)c(-c4ccccc4)nc3c2)cc(OC)c1OC       > 100 µM
5                O=C1c2ccccc2CN1c1ccc(O)cc1       > 100 µM

---

Tested on: A549 NSCLC
assayName: NCI tumour cell line growth inhibition, 48 h
quantity: TGI

> print(dat)
                                   compound  quantity  valuemeasured
1                O=C1c2ccccc2CN1c1ccc(O)cc1       TGI       > 100 µM
2               CC(C)(C)C#CC1=C(Br)C(=O)OC1       TGI        8.73 µM
3  COc1cccc(NC(=O)CC(=O)N2N=C(N(CCC#N)c3ccc(Cl)cc3)CC2c2ccccc2)c1 (centres undefined)       TGI       > 100 µM
4           CNC(=O)c1cncc(/C=C/c2ccccc2C)c1       TGI        > 25 µM

---

Test system: SF-539 CNS
assayName: NCI tumour cell line growth inhibition, 48 h
Reported TGI values for a set of compounds
quantity: TGI

> print(dat)
                                   compound  valuemeasured
1  CCC(C(=O)O)c1ccc(OCc2ccccc2)cc1 (stereo not drawn)       > 100 µM
2        COC(=O)c1ccccc1/C=C1/Cc2ccccc2C1=O       > 100 µM
3  O=c1c2ncn(C3CC(O)C(CO)O3)c2nnn1Cc1ccccc1[N+](=O)[O-] (stereo not drawn)       > 100 µM

---

Reported TGI values for a set of compounds
System: NCI-H522 lung
assayName: NCI tumour cell line growth inhibition, 48 h
quantity: TGI

compound	quantity	valueMeasured
OC[C@@H](O)[C@H]1NC[C@@H](O)[C@H]1O	TGI	> 100 µM
COc1cc(/C=C/C(=O)O)ccc1C(=O)O/C=C/c1ccccc1	TGI	> 100 µM
CNS(=O)(=O)NN(C)S(=O)(=O)c1ccc(F)cc1	TGI	> 100 µM
CCCCCCCCCC[C@H](O)[C@H]1CC[C@H]([C@H]2CC[C@H]([C@H](O)CC[C@H](O)CCCCCCC[C@@H](O)CC3=C[C@H](C)OC3=O)O2)O1	TGI	> 100 µM
CCOC(=O)C1=C(C(C)=O)CSC(c2ccccc2)=N1	TGI	> 100 µM
c1cc(-c2cn3ccsc3n2)ccn1	TGI	> 100 µM
NC(CSCc1ccccc1)C(=O)O (stereo not given)	TGI	> 100 µM
Nc1ccn(Cc2ccc(C34CC5CC(CC(C5)C3)C4)c(O)c2)c(=O)n1	TGI	> 100 µM
CCOC(=O)C1=C(C)N(Cc2ccccc2)C(C)=C(C(=O)OCC)C1c1ccccc1O	TGI	74.5 µM
CCOC(=O)c1[nH]cc(C)c1-c1ccn(-c2ccccc2)c1	TGI	71.2 µM
CC(C)(C)C1=Cc2cc3cc(C(C)(C)C)[nH]c(=O)c3cc2S(=O)(=O)N1	TGI	32.3 µM
COc1cccc(/C=C/C(=O)c2cccc(Nc3nc(Nc4ccccc4)nc(Nc4ccccc4)n3)c2)c1	TGI	> 100 µM
CCC12C[N+]3([O-])CCc4c([nH]c5ccccc45)C(C(=O)OC)(c4cc5c(cc4OC)N(C)C4C(O)(C(=O)OC)C(OC(C)=O)C6(CC)C=CCN7CCC54C76)CC(C3)C1O2 (stereo not given)	TGI	0.282 µM
CNC(=O)OCc1nc(SC2CCCCO2)n(C)c1COC(=O)NC (stereo not given)	TGI	> 100 µM
CCCCOC(C)(C)/C=C/C(O)[C@](C)(O)[C@H]1[C@H](O)C[C@@]2(C)[C@@H]3CCc4c(cc(OC5OC(CO)C(O)C(O)C5O)c(O)c4C)C3(C)C(=O)C[C@]12C (stereo not given in full)	TGI	> 100 µM
COc1cc2c(cc1OC)C(N(C)C)C(c1ccccc1)=C2Cl (stereo not given)	TGI	21.7 µM
CC(=O)NNc1nc(C)c(C(=O)NNC(=O)C(=O)Nc2ccccc2C#N)s1	TGI	> 100 µM
CC(=O)N/N=C1/NN(C(C)=O)C2(S1)C(=O)Nc1ccc(Br)cc12 (stereo not given)	TGI	> 100 µM
CC1(C)C(c2ccccc2)=[N+]([O-])C(C)(C)N1O	TGI	> 10 µM
CC(C)(C)C[C@H]1NC(C(=O)NCC[C@H](O)CO)[C@H](c2cccc(Cl)c2)[C@@]12C(=O)Nc1cc(Cl)c(F)cc12 (stereo not given in full)	TGI	30 µM
Cc1ccc(/C=C2\CN(C(=O)OC(C)(C)C)C/C(=C\c3ccc(C)cc3)C2=O)cc1	TGI	> 100 µM
O=[N+]([O-])C(=C(N1CCCCC1)N1CCCCC1)/C(Cl)=C(\Cl)Br	TGI	33.9 µM
C[C@H](Nc1ncnc2nc[nH]c12)c1cc2cccc(Cl)c2c(=O)n1-c1ccccc1	TGI	> 100 µM
COc1ccc2c(c1)C(O)(C(F)(F)F)c1cc(C(=O)C(F)(F)F)c3ccccc3c1N2 (stereo not given)	TGI	20.6 µM
COc1cc(Cl)cc(-c2nn(C(=O)NCCN3CCOCC3)cc2-c2ccncc2)c1	TGI	> 100 µM
COc1ccc(N2C(=O)c3c4c(c5c([nH]c6ncccc65)c3C2=O)CCC(C(C)(C)C)C4)cc1 (stereo not given)	TGI	> 100 µM
COc1ccc2c(c1)O/C(=C\c1cccc(OCC(=O)Nc3nc4c(s3)CCCC4)c1)C2=O	TGI	13.9 µM
COc1ccc(CC(CO)NC(=O)OCc2ccccc2)cc1Oc1ccc(CC(CO)NC(=O)OCc2ccccc2)cc1 (stereo not given)	TGI	18.4 µM
Nc1nn2c(C(Br)Br)cc(C(Br)Br)nc2c1[N+](=O)[O-]	TGI	0.248 µM
C1CCSCCCCSCCCCSCCCCSC1	TGI	> 100 µM

---

Reported TGI values for a set of molecules
Tested on: HOP-62 NSCLC
assayName: NCI tumour cell line growth inhibition, 48 h
quantity: TGI

> print(dat)
                                   molecule  valuemeasured
1  N#Cc1nc(-c2cc([N+](=O)[O-])cc([N+](=O)[O-])c2)oc1N        > 10 µM
2  COC(=O)[C@H](Cc1cn(C)cn1)NC(=O)[C@H](Cc1c[nH]c2ccccc12)NC(=O)Nc1cc(C(F)(F)F)cc(C(F)(F)F)c1        > 10 µM
3  O=C1OC(=O)C(c2c[nH]c3ccccc23)=C1c1c[nH]c2ccccc12        > 25 µM
4  CC/C=C\C=C/C(=O)N/C=C/CC1Cc2cccc(O)c2C(=O)O1 (stereo not given)        50.5 µM
5  COc1ccc(/C(=N/O)c2ccccc2-c2nc3ccccc3c(=O)n2-c2ccc(S(=O)(=O)Nc3ncccn3)cc2)cc1C      > 31.6 µM

---

Reported TGI values for a set of compounds
System: HS 578T breast
assayName: NCI tumour cell line growth inhibition, 48 h
quantity: TGI

> print(dat)
                                   compound  valuemeasured
1  CSCCC(NCc1c(O)ccc2c(-c3ccccc3)cc(=O)oc12)C(=O)O (stereo unspecified)       > 100 µM
2  O=C(CC(=O)CC(O)(C(F)(F)F)C(F)(F)F)CC(O)(C(F)(F)F)C(F)(F)F        > 10 µM
3  COc1cc2c(cc1OC)C1c3ccccc3CCN1CC2 (stereo unspecified)       > 100 µM
4  CC/C=C\C=C/C(=O)N/C=C/CC1Cc2cccc(O)c2C(=O)O1 (stereo unspecified)       > 100 µM
5  CC(=O)N/N=C1/NN(C(C)=O)C2(S1)C(=O)Nc1ccc(Br)cc12 (stereo unspecified)       > 100 µM
6  CC(C)(C)NC(=O)[C@H]1CC[C@H]2[C@@H]3CC=C4NC(=O)CC[C@]4(C)[C@H]3CC[C@]12C       > 100 µM

---

System: U251 CNS
assayName: NCI tumour cell line growth inhibition, 48 h
quantity: TGI

> print(dat)
                                   molecule  quantity  valuemeasured
1  CSC1CC2C(CC1(C)O)C2(C)C (centres undefined)       TGI       > 100 µM
2            CC1(C)O[C@@H]2COC(=O)[C@@H]2O1       TGI       > 100 µM
3  CN1CCN(CCc2cccc(C(=O)c3cnn(-c4ccc(F)cc4)c3N)c2)CC1       TGI        > 25 µM
4  COc1cccc(/C=C/C(=O)c2cccc(Nc3nc(Nc4ccccc4)nc(Nc4ccccc4)n3)c2)c1       TGI      > 73.8 µM
